The following molecules are listed with their measured TGI values.
Test system: MDA-MB-231 breast
Protocol: NCI tumour cell line growth inhibition, 48 h

Solved entries (count: 10):
[ask] Could you please provide reported TGI for `COC(=O)[C@H]1[C@@H](C(C)C)O[C@@H](C(C)C)O[C@H]1C(F)(F)F` ? Thanks!
[reply] > 100 µM

[ask] Could you please provide reported TGI for `FC(F)(F)c1cc(-c2nnc3n2N=C(N2CCCC2)CS3)cc(C(F)(F)F)c1` ? Thanks!
[reply] > 50 µM

[ask] Could you please provide reported TGI for `CCNc1ccc2c(c1)Cc1ccccc1-2` ? Thanks!
[reply] > 100 µM

[ask] Could you please provide reported TGI for `c1ccc(CCN2CCc3[nH]c4ccccc4c3C2)cc1` ? Thanks!
[reply] 87.7 µM

[ask] Could you please provide reported TGI for `Cn1nc2n(c1=O)CCCN2` ? Thanks!
[reply] > 100 µM

[ask] Could you please provide reported TGI for `CCOC(=O)c1c(CN2CCNCC2)nc2ccccc2c1-c1ccccc1` ? Thanks!
[reply] 29.3 µM

[ask] Could you please provide reported TGI for Cc1cc(C)c(P2C(=C(O[Si](C(C)C)(C(C)C)C(C)C)C(C)(C)C)C2(c2ccccc2)c2ccccc2)c(C)c1 (stereo unspecified) ? Thanks!
[reply] > 100 µM

[ask] Could you please provide reported TGI for `CCCc1c(CC)c(=N)c2ccccc2n1C` ? Thanks!
[reply] > 100 µM

[ask] Could you please provide reported TGI for `Nc1nc(-c2ccccc2N=NN2CCCC2)nc2ccccc12` ? Thanks!
[reply] 3.63 µM

[ask] Could you please provide reported TGI for `COc1ccccc1/C=C/[N+](=O)[O-]` ? Thanks!
[reply] 6.93 µM

Further cases:
[ask] Could you please provide reported TGI for CCOC(=O)C1(Br)C(c2ccccc2)NC(=O)NC1(C)Br (stereo unspecified) ? Thanks!
[reply] > 100 µM

###

Tested on: SF-268 CNS
Protocol: NCI tumour cell line growth inhibition, 48 h
The following molecules are listed with their measured TGI values.

[ask] Could you please provide reported TGI for COc1cccc(CC(C)NCC(O)c2ccc(O)c(O)c2)c1 (stereo not given) ? Thanks!
[reply] > 100 µM

[ask] Could you please provide reported TGI for `CC1(C)C(=O)C(C)(C)C1=NN` ? Thanks!
[reply] > 100 µM

[ask] Could you please provide reported TGI for `Cc1ccc(-c2cc(-c3ccco3)c(C#N)c(=O)[nH]2)cc1` ? Thanks!
[reply] > 100 µM

[ask] Could you please provide reported TGI for `CO/C(=N\N=C\c1cccc(Cl)c1)c1ccncc1` ? Thanks!
[reply] > 10 µM

[ask] Could you please provide reported TGI for C=CC1[C@H]2COC(C)(C)O[C@@H]2CC(=O)C1(C)C (stereo not given in full) ? Thanks!
[reply] > 100 µM

Further cases:
[ask] Could you please provide reported TGI for `C=CCN(/C=C1/C(=O)O[C@H](COC)[C@@]2(C)C1=C(O)C(=O)C1=C2[C@H](OC(C)=O)C[C@]2(C)C(=O)CC[C@@H]12)CC=C` ? Thanks!
[reply] > 10 µM

[ask] Could you please provide reported TGI for `COc1ccc(/C=c2\[nH]c3nc(=O)c(N4CCOCC4)c(N)n3c2=O)cc1` ? Thanks!
[reply] > 100 µM

[ask] Could you please provide reported TGI for `O=C(CSCC(=O)N/N=C/c1cccs1)N/N=C/c1cccs1` ? Thanks!
[reply] > 100 µM

[ask] Could you please provide reported TGI for `O=C(O)[C@@H]1[C@H](C(=O)O)[C@H](C(=O)O)C[C@@H]1C(=O)O` ? Thanks!
[reply] > 100 µM

[ask] Could you please provide reported TGI for CC(=O)Nc1ccc(C(=O)NN2C(=O)C(Cl)C2c2ccc([N+](=O)[O-])cc2)cc1 (stereo not given) ? Thanks!
[reply] > 100 µM

###

System: MOLT-4 leukemia
Protocol: NCI tumour cell line growth inhibition, 48 h
Measurement Type: TGI

Solved entries (count: 2):
[ask] Could you please provide reported TGI for `O=C1CCC2(CCO1)OCCO2` ? Thanks!
[reply] > 100 µM

[ask] Could you please provide reported TGI for `CCCCc1cc2c(C)cc(=O)oc2c(O)c1O` ? Thanks!
[reply] > 100 µM

Further cases:
[ask] Could you please provide reported TGI for `COc1ccccc1/C=C/[N+](=O)[O-]` ? Thanks!
[reply] 6.45 µM

[ask] Could you please provide reported TGI for COc1ccccc1/C=C1\CCC(CCN(C)C)(C2=CCCC2)C1=O (stereo unspecified) ? Thanks!
[reply] 54.3 µM

[ask] Could you please provide reported TGI for `c1ccc(CCN2CCc3[nH]c4ccccc4c3C2)cc1` ? Thanks!
[reply] 70.5 µM

###

System: SNB-75 CNS
Protocol: NCI tumour cell line growth inhibition, 48 h
The following compounds are listed with their measured TGI values.
Number only, in µM; omit the unit.

Solved entries (count: 2):
[ask] Could you please provide reported TGI for `Oc1ccc(C(c2ccc(O)cc2)c2ccc(Cl)cn2)cc1` ? Thanks!
[reply] 0.451

[ask] Could you please provide reported TGI for `O=C1C=CC(=O)C(CNc2ccc(C(=O)OC34CC5CC(CC(C5)C3)C4)cc2)=C1` ? Thanks!
[reply] 18.1

Now for the compound whose TGI we want.
[ask] Could you please provide reported TGI for `Clc1ccc(Cc2nc3ccccc3s2)c(Cl)c1` ? Thanks!
[reply] 34.5

###

The following molecules are listed with their measured TGI values.
System: HCT-15 colon
Protocol: NCI tumour cell line growth inhibition, 48 h
Number only, in µM; omit the unit.

[ask] Could you please provide reported TGI for `Clc1ccc(Cc2nc3ccccc3s2)c(Cl)c1` ? Thanks!
[reply] 36.5

Now for the molecule whose TGI we want.
[ask] Could you please provide reported TGI for `Cc1cc(/C=C\c2ccc3ccccc3[n+]2C)c(O)c2ncccc12` ? Thanks!
[reply] 17.8

###

Tested on: LOX IMVI melanoma
Protocol: NCI tumour cell line growth inhibition, 48 h
Measurement Type: TGI

[ask] Could you please provide reported TGI for `CCOC(=O)/C(O)=C/c1cc(OC)cc(=O)o1` ? Thanks!
[reply] > 100 µM

[ask] Could you please provide reported TGI for `CC(=O)/C(=C/n1c(=S)[nH]c2ccccc21)C(=O)Nc1ccccc1C` ? Thanks!
[reply] > 100 µM

[ask] Could you please provide reported TGI for `NC(=S)N/N=C\c1ccc(OCc2cccc(COc3ccc(/C=N/NC(N)=S)cc3)n2)cc1` ? Thanks!
[reply] > 100 µM

[ask] Could you please provide reported TGI for `FC(F)(F)c1cc(-c2nnc3n2N=C(N2CCCC2)CS3)cc(C(F)(F)F)c1` ? Thanks!
[reply] > 50 µM

Further cases:
[ask] Could you please provide reported TGI for Nc1nc2c(c(=O)[nH]1)NC(CO)CN2 (stereo not given) ? Thanks!
[reply] 36.7 µM

###

Test system: NCI-H226 lung
Protocol: NCI tumour cell line growth inhibition, 48 h
The following molecules are listed with their measured TGI values.

Solved entries (count: 5):
[ask] Could you please provide reported TGI for COc1cc2c(cc1OCCCC(=O)Nc1cc(C(=O)Nc3cc(C(=O)Nc4cc(C(=O)NCCCN(C)C)n(C)n4)n(C)n3)n(C)n1)N=CC1CCCN1C2=O (stereo not drawn) ? Thanks!
[reply] 48.1 µM

[ask] Could you please provide reported TGI for `Cc1ccc(C(=O)N/N=C(\N=Nc2cccc(Cl)c2)c2ccc(N(CCC#N)CCC#N)cc2C)cc1` ? Thanks!
[reply] > 100 µM

[ask] Could you please provide reported TGI for `O=C(c1ccc(Cl)cc1)c1ccc(OCCCCCCCCCCOc2ccc(C(=O)c3ccc(Cl)cc3)cc2)cc1` ? Thanks!
[reply] > 100 µM

[ask] Could you please provide reported TGI for `O=C1CCC2(CCO1)OCCO2` ? Thanks!
[reply] > 100 µM

[ask] Could you please provide reported TGI for O=C(c1ccccc1)C1CCCCN1C(=O)c1ccccc1 (stereo not drawn) ? Thanks!
[reply] > 100 µM

Now for the molecule whose TGI we want.
[ask] Could you please provide reported TGI for `O=C1C=CC(=O)C(CNc2ccc(C(=O)OC34CC5CC(CC(C5)C3)C4)cc2)=C1` ? Thanks!
[reply] 4.47 µM

###

The following compounds are listed with their measured TGI values.
System: SNB-19 CNS
Protocol: NCI tumour cell line growth inhibition, 48 h

Solved entries (count: 4):
[ask] Could you please provide reported TGI for `C[C@H](NC(=O)[C@@H]1CSSC[C@@H](NC(=O)c2nc3ccccc3cc2O)C(=O)NCC(=O)N1C)c1ccccc1` ? Thanks!
[reply] 19.4 µM

[ask] Could you please provide reported TGI for `CO/C(=N\N=C\c1cccc(Cl)c1)c1ccncc1` ? Thanks!
[reply] > 10 µM

[ask] Could you please provide reported TGI for `O=C(c1ccc2ccccc2c1)c1c(C(F)(F)F)n([O-])c2cc(F)c(F)cc2[n+]1=O` ? Thanks!
[reply] 4.1 µM

[ask] Could you please provide reported TGI for CC1CCP(=O)(c2ccccc2)c2ccccc21 (stereo not given) ? Thanks!
[reply] > 100 µM

Further cases:
[ask] Could you please provide reported TGI for `CCOC(=O)c1c(N2CCCC2)ncn(-c2ccccc2)c1=S` ? Thanks!
[reply] > 100 µM
